All figures here come from patent US20260092074A1.

# TEST_TARGET: UniProtKB P15538
# Sequence (P15538 25-503): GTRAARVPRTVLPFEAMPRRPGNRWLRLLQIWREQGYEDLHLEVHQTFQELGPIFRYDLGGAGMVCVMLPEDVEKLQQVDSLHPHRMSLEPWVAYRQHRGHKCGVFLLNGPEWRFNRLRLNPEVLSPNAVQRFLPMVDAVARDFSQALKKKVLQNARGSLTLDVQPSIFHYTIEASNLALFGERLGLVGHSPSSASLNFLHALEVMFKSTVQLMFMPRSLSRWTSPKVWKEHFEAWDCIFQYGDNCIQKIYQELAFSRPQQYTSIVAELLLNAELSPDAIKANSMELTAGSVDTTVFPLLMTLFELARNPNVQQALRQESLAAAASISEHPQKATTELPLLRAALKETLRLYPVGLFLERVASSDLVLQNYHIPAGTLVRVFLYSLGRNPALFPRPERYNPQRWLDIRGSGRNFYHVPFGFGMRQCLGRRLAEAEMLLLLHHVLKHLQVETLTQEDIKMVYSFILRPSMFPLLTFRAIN
# PROCEDURE_TEXT: Inhibition of hCYP11B1 in transfected V79 cells
# CONDITION_NOTES: hamster V79 cells expressing human CYP11B1; substrate 11-deoxycortisol 200 nM
REPORTED_ENDPOINT: IC50 (µM)

Before answering, review these 2 worked examples.
>>> endpoint_result("COc1cccc(S(=O)(=O)N2CC(S(=O)(=O)N3CCSc4c(-c5ccc(C#N)cc5)cncc43)C2)c1")
0.016
>>> endpoint_result("Cn1ncc2cc(-c3cncc4c3CCN4C(=O)c3ccccc3F)ccc21")
4.25

1: N#Cc1ccc(-c2cncc3c2OCCN3C(=O)Cc2ccc(F)cc2)cc1
2: N#Cc1ccc(-c2cncc3c2OCCN3C(=O)C2CN(S(=O)(=O)c3cccc([N+](=O)[O-])c3)C2)cc1
3: N#Cc1ccc(-c2cncc3c2OCCN3S(=O)(=O)C2CN(S(=O)(=O)c3cccc(F)c3)C2)cc1
Query: // ranking: key=IC50, reverse=True Write the labels, ordered according to the request.
Reply: 1, 2, 3
(1: 0.262 µM, 2: 0.181 µM, 3: 0.045 µM)

A: O=C(C1CN(Cc2cccc(F)c2)C1)N1CCOc2c(N3CCn4ccnc4C3)cncc21
B: N#Cc1ccc(-c2cncc3c2SCCN3C(=O)c2cccc(F)c2)cc1
Query: Between A and B , which one shows the larger IC50 value? Lab note: record the label of whichever item you select.
Reply: A
(A: 3.96 µM, B: 1.37 µM)

---

# TEST_TARGET: human CYP11B1 (Homo sapiens)
# Sequence (P15538 25-503): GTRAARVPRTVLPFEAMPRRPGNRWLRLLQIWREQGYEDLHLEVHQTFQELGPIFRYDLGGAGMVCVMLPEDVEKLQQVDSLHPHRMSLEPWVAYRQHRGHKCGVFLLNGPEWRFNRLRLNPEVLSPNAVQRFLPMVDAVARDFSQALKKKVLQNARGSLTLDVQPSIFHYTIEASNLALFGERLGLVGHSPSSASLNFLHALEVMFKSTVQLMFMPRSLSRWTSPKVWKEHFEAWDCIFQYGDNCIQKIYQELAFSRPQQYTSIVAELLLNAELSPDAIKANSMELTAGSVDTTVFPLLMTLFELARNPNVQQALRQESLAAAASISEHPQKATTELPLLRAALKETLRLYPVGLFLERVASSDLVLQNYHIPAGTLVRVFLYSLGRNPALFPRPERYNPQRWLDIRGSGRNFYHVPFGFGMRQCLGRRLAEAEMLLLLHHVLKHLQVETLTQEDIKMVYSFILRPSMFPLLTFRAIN
# PROCEDURE_TEXT: Inhibition of hCYP11B1 in transfected V79 cells
# CONDITION_NOTES: hamster V79 cells expressing human CYP11B1; substrate 11-deoxycortisol 200 nM
pIC50: −log10 of the molar value.
REPORTED_ENDPOINT: pIC50

>>> endpoint_result("COc1cccc(CN2CC(S(=O)(=O)N3CCOc4c(-c5ccc(C#N)cc5)cncc43)C2)c1")
7.42

I: N#Cc1ccc(-c2cncc3c2OCCN3C(=O)CCc2ccc(C(F)(F)F)cc2)cc1
II: O=C(C1CN(Cc2cccc(F)c2)C1)N1CCOc2c(-c3ccc4ncsc4c3)cncc21
Query: Between I and II , which one shows the larger pIC50 value? Lab note: record the label of whichever item you select.
Reply: I

---

# TEST_TARGET: human CYP11B2 (Homo sapiens)
# PROCEDURE_TEXT: Inhibition of hCYP11B2 in transfected V79 cells
# CONDITION_NOTES: hamster V79 cells expressing human CYP11B2; substrate 11-deoxycorticosterone 200 nM
REPORTED_ENDPOINT: IC50 (nM)

Before answering, review these 3 worked examples.
>>> endpoint_result("N#Cc1ccc(-c2cncc3c2OCCN3S(=O)(=O)C2CC(c3ccccc3)=NO2)cc1 (centres unmarked)")
0.3
>>> endpoint_result("N#Cc1ccc(-c2cncc3c2ccn3S(=O)(=O)c2ccc(Cl)cc2)cc1")
0.1
>>> endpoint_result("N#Cc1ccc(-c2cncc3c2CCN3S(=O)(=O)c2cccs2)cc1")
3.5

1: CN1CCN(C(=O)c2ccc(F)cc2)c2cncc(-c3ccc(C#N)cc3)c21
2: Cn1ccc(S(=O)(=O)N2CCSc3c(-c4cc5cc(Cl)ccc5o4)cncc32)n1
Query: Record comparison, field IC50: mark the lower of 1 and 2 . Lab note: record the label of whichever item you select.
Reply: 2
(2: 0.5 nM, 1: 7.8 nM)

---

# TEST_TARGET: human CYP11B2 (Homo sapiens)
# PROCEDURE_TEXT: Inhibition of hCYP11B2 in transfected V79 cells
# CONDITION_NOTES: hamster V79 cells expressing human CYP11B2; substrate 11-deoxycorticosterone 200 nM
REPORTED_ENDPOINT: IC50 (nM)

Before answering, review these 6 worked examples.
>>> endpoint_result("N#Cc1ccc2oc(-c3cncc4c3OCCN4C(=O)C3CN(Cc4cccc(F)c4)C3)cc2c1")
5.2
>>> endpoint_result("N#Cc1ccc(-c2cncc3c2OCCN3C(=O)C2CN(S(=O)(=O)c3cccs3)C2)cc1")
0.5
>>> endpoint_result("N#Cc1ccc(S(=O)(=O)N2CCSc3c(-c4ccc5c(c4)CC(=O)N5)cncc32)cc1")
10.3
>>> endpoint_result("COc1ccc(S(=O)(=O)N2CCSc3c(-c4cccc(F)c4)cncc32)cc1")
5.9
>>> endpoint_result("COc1ccc(CC(=O)N2CCc3c(-c4ccc(C#N)cc4)cncc32)cc1")
9
>>> endpoint_result("N#Cc1ccc(-c2cncc3c2CCN3C(=O)c2ccc(Cl)cc2)cc1")
40

A: O=C(c1ccc(F)cc1)n1ccc2c(-c3ccc4ncoc4c3)cncc21
B: N#Cc1ccc(-c2cncc3c2CCN3S(=O)(=O)c2cccc(Cl)c2)cc1
Query: Record comparison, field IC50: mark the lower of A and B . Lab note: record the label of whichever item you select.
Reply: B
(B: 0.5 nM, A: 8 nM)

---

# TEST_TARGET: human CYP11B2 (Homo sapiens)
# Sequence (P19099 25-503): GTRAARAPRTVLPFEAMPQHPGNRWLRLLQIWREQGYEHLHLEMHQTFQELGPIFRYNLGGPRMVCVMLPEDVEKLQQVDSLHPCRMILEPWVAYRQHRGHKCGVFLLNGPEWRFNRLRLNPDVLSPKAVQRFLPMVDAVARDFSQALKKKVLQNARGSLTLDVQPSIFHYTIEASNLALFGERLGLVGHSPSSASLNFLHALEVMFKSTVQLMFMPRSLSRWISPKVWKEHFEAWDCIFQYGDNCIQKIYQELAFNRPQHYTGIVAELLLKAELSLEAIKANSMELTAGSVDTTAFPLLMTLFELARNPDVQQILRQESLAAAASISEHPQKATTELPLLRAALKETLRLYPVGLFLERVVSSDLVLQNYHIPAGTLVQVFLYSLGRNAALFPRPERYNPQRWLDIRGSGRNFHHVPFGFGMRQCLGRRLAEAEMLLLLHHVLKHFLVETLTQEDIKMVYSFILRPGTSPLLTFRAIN
# PROCEDURE_TEXT: Inhibition of hCYP11B2 in transfected V79 cells
# CONDITION_NOTES: hamster V79 cells expressing human CYP11B2; substrate 11-deoxycorticosterone 200 nM
pIC50: −log10 of the molar value.
REPORTED_ENDPOINT: pIC50

>>> endpoint_result("Cn1ncc2ccc(-c3cncc4c3SCCN4S(=O)(=O)c3ccc(C#N)cc3)cc21")
7.94
>>> endpoint_result("N#CN1CCC(S(=O)(=O)N2CCSc3c(-c4cc5cc(Cl)ccc5o4)cncc32)CC1")
8.00
>>> endpoint_result("COc1ccc(S(=O)(=O)N2CC(S(=O)(=O)N3CCOc4c(-c5ccc(C#N)cc5)cncc43)C2)cc1")
8.57
>>> endpoint_result("COc1ccc(S(=O)(=O)N2CCSc3c(-c4cc5cc(Cl)ccc5o4)cncc32)cn1")
9.05
>>> endpoint_result("N#Cc1ccc(-c2cncc3c2SCCN3S(=O)(=O)C2CN(S(=O)(=O)c3cccc(C#N)c3)C2)cc1")
9.10
>>> endpoint_result("COc1ccc(S(=O)(=O)n2ccc3c(-c4ccc(C#N)cc4)cncc32)cc1")
10.00

A: N#Cc1ccc(-c2cncc3c2OCCN3C(=O)C2CN(c3ccc(C#N)cc3)C2)cc1
B: N#Cc1ccc(-c2cncc3c2CCN3C(=O)Cc2ccccc2Br)cc1
C: N#Cc1ccc(-c2cncc3c2OCCN3C(=O)C2CN(S(=O)(=O)c3ccc(F)cc3)C2)cc1
D: N#Cc1ccc(-c2cncc3c2OCCN3C(=O)Cc2cccc(F)c2)cc1
E: N#Cc1ccc(-c2cncc3c2OCCN3C(=O)CCl)cc1
Query: Order each entry by recorded pIC50, climbing from the minimum. Write the labels, ordered according to the request.
Reply: E, B, A, D, C
